# System: CRL-7250
# test name: Cytotoxic Profiling of Annotated Libraries Using Quantitative High-Throughput Screening (AID 1296008); note: % is set by controls: 0 for no effect and ±100 for the full control effect; nearly all actives have a fitted effect of over 60% in size
# details: Five cell lines viability, CellTiter-Glo ATP luminescence, 48-72 h; active compounds read low
Records with an inconclusive call do not appear.
measurement label: max response (%)
One number for each entry, in %.

Example entries begin here.
Given the molecule `COC(=O)c1ccccc1C(=O)c1ccc(OCCN2CCCCC2)cc1` , what is its reported max response?
-2.25

Try CCN1CC(CCN2CCOCC2)C(c2ccccc2)(c2ccccc2)C1=O (stereo not drawn) next.
2.93

Now this one: `COc1ccc(C(=O)N2CCN(CC(=O)N3CCOCC3)CC2)cc1`
3.53

Then this molecule: `Cc1cc(-n2nc3ccc(Cl)cc3n2)c(O)c(C(C)(C)C)c1`
-3.44

Same question for NS(=O)(=O)c1cc(C2(O)NC(=O)c3ccccc32)ccc1Cl (stereo not drawn) please.
-0.145

# batch: return max response for each of the 3 molecules below
1. C=CCOc1ccccc1OCC(O)CNC(C)C (stereo not drawn)
2. CC(=O)N[C@H]1[C@H]([C@H](O)[C@H](O)CO)OC(C(=O)O)=C[C@@H]1N=C(N)N
3. CN1CC(=O)NC1=N

1: -3.74; 2: -5.6; 3: -20.6
